target: recombinant human PARP (Homo sapiens)
experiment.summary: Measurement of PARP enzymatic activity (transfer of radiolabeled ADP-ribose from NAD+ to protein acceptor)
Type: biochemical
condition.description: Table 2; read-out: PARP IC50
Where a name gives a salt, the structure may show the parent alone.
readout.type: IC50

Solved cases (2 shown):
>>> test_value("CCN(CC)CC(=O)c1ccc2[nH]c3c4c(c5c(c3c2c1)C(=O)NC5=O)CCC4")
"21 nM"
>>> test_value("CCOCCOc1ccc2[nH]c3c4c(c5c(c3c2c1)C(=O)NC5=O)CCC4")
"59 nM"

Now for a further compound.
Problem: Data request, read-out IC50, for O=C1NC(=O)c2c1c1c(c3[nH]c4ccc(CNCc5ccc6[nH]c7c8c(c9c(c7c6c5)C(=O)NC9=O)CCC8)cc4c23)CCC1 [Compound 2q, hydrochloride]
Solution: 167 nM

* * *

target: recombinant human PARP (Homo sapiens, UniProt P09874)
Sequence (P09874 whole entry): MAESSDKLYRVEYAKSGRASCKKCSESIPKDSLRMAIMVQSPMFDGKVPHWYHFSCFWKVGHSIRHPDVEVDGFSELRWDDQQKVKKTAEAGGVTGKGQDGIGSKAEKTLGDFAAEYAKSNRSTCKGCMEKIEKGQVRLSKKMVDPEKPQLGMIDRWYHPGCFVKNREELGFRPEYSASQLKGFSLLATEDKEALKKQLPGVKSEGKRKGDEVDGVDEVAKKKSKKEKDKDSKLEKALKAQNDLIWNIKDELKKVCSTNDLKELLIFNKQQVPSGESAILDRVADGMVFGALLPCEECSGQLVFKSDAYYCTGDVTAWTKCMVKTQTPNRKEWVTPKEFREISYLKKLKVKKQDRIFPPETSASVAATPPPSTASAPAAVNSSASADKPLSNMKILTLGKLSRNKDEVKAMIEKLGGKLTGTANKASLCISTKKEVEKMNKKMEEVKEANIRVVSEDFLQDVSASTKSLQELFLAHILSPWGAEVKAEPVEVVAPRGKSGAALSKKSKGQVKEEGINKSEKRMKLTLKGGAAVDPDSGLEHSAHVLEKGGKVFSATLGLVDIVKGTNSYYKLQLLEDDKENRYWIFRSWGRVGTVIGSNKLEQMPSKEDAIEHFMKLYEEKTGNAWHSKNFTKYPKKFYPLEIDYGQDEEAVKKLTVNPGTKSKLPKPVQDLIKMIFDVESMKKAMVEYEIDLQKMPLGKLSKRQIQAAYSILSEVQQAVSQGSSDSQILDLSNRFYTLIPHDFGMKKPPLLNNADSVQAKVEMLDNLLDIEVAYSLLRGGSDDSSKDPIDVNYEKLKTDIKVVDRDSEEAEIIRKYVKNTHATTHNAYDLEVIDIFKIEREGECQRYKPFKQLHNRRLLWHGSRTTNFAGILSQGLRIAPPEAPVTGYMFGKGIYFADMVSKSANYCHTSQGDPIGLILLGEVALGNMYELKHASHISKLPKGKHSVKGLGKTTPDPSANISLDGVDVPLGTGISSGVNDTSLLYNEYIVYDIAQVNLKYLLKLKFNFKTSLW
experiment.summary: Measurement of PARP enzymatic activity (transfer of radiolabeled ADP-ribose from NAD+ to protein acceptor)
Assay type: biochemical
condition.description: Table 2; read-out: PARP IC50
Would you kindly list IC50 for each of these molecules?
Be sure to follow the number with its unit.

# annotated cases, reported IC50 shown
>>> test_value("O=C(CN1CCCC1C(=O)O)c1ccc2[nH]c3c4c(c5c(c3c2c1)C(=O)NC5=O)CCC4 (stereo not drawn)")
"7 nM"
>>> test_value("O=C(NCc1cccnc1)c1ccc2[nH]c3c4c(c5c(c3c2c1)C(=O)NC5=O)CCC4")
"21 nM"
>>> test_value("CC(=O)NCc1ccc2[nH]c3c4c(c5c(c3c2c1)C(=O)NC5=O)CCC4")
"13 nM"
>>> test_value("O=C(CCC(=O)N1CCCC1C(=O)O)c1ccc2[nH]c3c4c(c5c(c3c2c1)C(=O)NC5=O)CCC4 (stereo not drawn)")
"2 nM"
>>> test_value("COCCNC(=O)c1ccc2[nH]c3c4c(c5c(c3c2c1)C(=O)NC5=O)CCC4")
"18 nM"

The record that follows has no IC50 shown yet.
Problem: Entry O=C(O)CCCC(=O)c1ccc2[nH]c3c4c(c5c(c3c2c1)C(=O)NC5=O)CCC4 : reported IC50 = ?
Solution: 2 nM

* * *

target: recombinant human PARP (Homo sapiens, UniProt P09874)
experiment.summary: Measurement of PARP enzymatic activity (transfer of radiolabeled ADP-ribose from NAD+ to protein acceptor)
Type: biochemical
condition.description: Table 18; read-out: PARP IC50
readout.type: pIC50
Answers are plain numbers, as −log10 of the molar value.

>>> test_value("COc1cccc2[nH]c3c4c(c5c(c3c12)C(=O)N(CN1CCN(C)CC1)C5=O)CCC4 [Compound 16e]")
7.85

For the 2 molecules below, give their pIC50 values.
1. COc1cccc2c1c1c3c(c4c(c1n2CN1CCOCC1)CCC4)C(=O)N(CN1CCOCC1)C3=O [Compound 16a]
2. COc1cc[n+]([O-])c2[nH]c3c4c(c5c(c3c12)C(=O)NC5=O)CCC4 [Compound 8m]

Solution:
1. 8.00
2. 7.77

Provide reported pIC50 for each item, in the same order as listed.
1. COc1c(Br)ccc2[nH]c3c4c(c5c(c3c12)C(=O)NC5=O)CCC4 [Compound 14m]
2. CCOCCOc1ccnc2[nH]c3c4c(c5c(c3c12)C(=O)NC5=O)CCC4 [Compound 8ab]
3. O=C1NC(=O)c2c1c1c(c3[nH]c4nc(O)c(Cl)cc4c23)CCC1 [Compound 8s]
4. COCCOc1ccnc2[nH]c3c4c(c5c(c3c12)C(=O)NC5=O)CCC4 [Compound 8aa]
5. CC(C)OCCOc1cccc2[nH]c3c4c(c5c(c3c12)C(=O)NC5=O)CCC4 [Compound 14j]

Solution:
1. 7.17
2. 7.96
3. 7.85
4. 8.00
5. 7.15

* * *

target: recombinant human PARP (Homo sapiens)
experiment.summary: Measurement of PARP enzymatic activity (transfer of radiolabeled ADP-ribose from NAD+ to protein acceptor)
Format: biochemical
condition.description: Table 2; read-out: PARP IC50
Could you please mark true for values of IC50 below 0.04 µM and false for values at or above it?

Problem: Consider NCCc1ccc2[nH]c3c4c(c5c(c3c2c1)C(=O)NC5=O)CCC4 [Compound 2be] . Does its IC50 lie strictly below 0.04 µM?
Solution: true

Problem: And what about the molecule CCc1ccc2[nH]c3c4c(c5c(c3c2c1)C(=O)NC5=O)CCC4 [Compound 2az] ?
Solution: false

* * *

target: recombinant human PARP (Homo sapiens)
experiment.summary: Measurement of PARP enzymatic activity (transfer of radiolabeled ADP-ribose from NAD+ to protein acceptor)
Type: biochemical
condition.description: Table 2; read-out: PARP IC50
Labelling: IC50 reported below 20 nM becomes met; at or above becomes not met.

>>> assigned_class("O=C(NCCc1ccccn1)c1ccc2[nH]c3c4c(c5c(c3c2c1)C(=O)NC5=O)CCC4 [Compound 2cv]")
"met"
>>> assigned_class("CCCCN(CCCC)Cc1ccc2[nH]c3c4c(c5c(c3c2c1)C(=O)NC5=O)CCC4 [Compound 2bn]")
"not met"
>>> assigned_class("COC(=O)C1CCCN1CC(=O)c1ccc2[nH]c3c4c(c5c(c3c2c1)C(=O)NC5=O)CCC4 (centres unmarked) [Compound 4a]")
"met"
>>> assigned_class("CCC(=O)NCc1nc(-c2ccc3[nH]c4c5c(c6c(c4c3c2)C(=O)NC6=O)CCC5)cs1 [Compound 3s]")
"not met"
>>> assigned_class("O=C(CCC(=O)N1CCCCC1)c1ccc2[nH]c3c4c(c5c(c3c2c1)C(=O)NC5=O)CCC4 [Compound 4p]")
"met"

Problem: Confirm or reject: IC50 of CC(C)(C)C(=O)OCc1nc(-c2ccc3[nH]c4c5c(c6c(c4c3c2)C(=O)NC6=O)CCC5)cs1 [Compound 3y] lies strictly below 20 nM
Solution: not met

Problem: # iterate: O=C(CCC(=O)N1CCOCC1)c1ccc2[nH]c3c4c(c5c(c3c2c1)C(=O)NC5=O)CCC4 [Compound 4f]
Solution: met

Problem: Check COC(=O)CCCC(=O)NCc1ccc2[nH]c3c4c(c5c(c3c2c1)C(=O)NC5=O)CCC4 [Compound 2aa] too.
Solution: met

* * *

Provide the reported pIC50 of each item.
target: recombinant human PARP (Homo sapiens, UniProt P09874)
experiment.summary: Measurement of PARP enzymatic activity (transfer of radiolabeled ADP-ribose from NAD+ to protein acceptor)
Format: biochemical
condition.description: Table 18; read-out: PARP IC50
Give bare numbers, as −log10 of the molar value.

Below are worked cases with known answers.
>>> test_value("COc1c(C#N)ccc2[nH]c3c4c(c5c(c3c12)C(=O)NC5=O)CCC4 [Compound 14o]")
8.15
>>> test_value("COc1c(I)ccc2[nH]c3c4c(c5c(c3c12)C(=O)NC5=O)CCC4 [Compound 14n]")
6.90
>>> test_value("O=C1NC(=O)c2c1c1c(c3[nH]c4nc(O)ccc4c23)CCC1 [Compound 8n]")
8.22
>>> test_value("O=C1NC(=O)c2c1c1c(c3[nH]c4cccc(OCCO)c4c23)CCC1 [Compound 14k]")
7.08
>>> test_value("COc1cccc2[nH]c3c4c(c5c(c3c12)C(=O)N(CN1CCOCC1)C5=O)CCC4 [Compound 16d]")
7.96

Proceeding to the next compound to report its pIC50.
Problem: I am curious: what pIC50 value has been reported for O=C1NC(=O)c2c1c1c(c3[nH]c4nccc(Cl)c4c23)CCC1 [Compound 8z] ?
Solution: 8.05

* * *

Would you kindly list pIC50 for each of these compounds?
target: recombinant human PARP (Homo sapiens, UniProt P09874)
experiment.summary: Measurement of PARP enzymatic activity (transfer of radiolabeled ADP-ribose from NAD+ to protein acceptor)
Type: biochemical
condition.description: Table 2; read-out: PARP IC50
One number for each entry, as −log10 of the molar value.

>>> test_value("O=C(CCC(=O)N1CCCC1)c1ccc2[nH]c3c4c(c5c(c3c2c1)C(=O)NC5=O)CCC4 [Compound 4t]")
7.80
>>> test_value("O=C1NC(=O)c2c1c1c(c3[nH]c4ccc(O)cc4c23)CCC1 [Compound 2ao]")
7.57
>>> test_value("CN(C)CCCOc1ccc2[nH]c3c4c(c5c(c3c2c1)C(=O)NC5=O)CCC4 [Compound 2as]")
7.00
>>> test_value("CCNCc1ccc2[nH]c3c4c(c5c(c3c2c1)C(=O)NC5=O)CCC4 [Compound 2bk]")
7.49
>>> test_value("O=C(O)c1nccnc1C(=O)c1ccc2[nH]c3c4c(c5c(c3c2c1)C(=O)NC5=O)CCC4 [Compound 4k]")
9.00
>>> test_value("COC(=O)C(=O)c1ccc2[nH]c3c4c(c5c(c3c2c1)C(=O)NC5=O)CCC4 [Compound 2ba]")
7.92

Batch of 7 compounds: report pIC50 for each.
1. CC(=O)c1ccc2[nH]c3c4c(c5c(c3c2c1)C(=O)NC5=O)CCC4 [Compound 2d]
2. CNCc1ccc2[nH]c3c4c(c5c(c3c2c1)C(=O)NC5=O)CCC4 [Compound 2bt]
3. NC(=O)c1ccc2[nH]c3c4c(c5c(c3c2c1)C(=O)NC5=O)CCC4 [Compound 2bh]
4. CC(C)(C)OC(=O)NCCC(=O)NCc1ccc2[nH]c3c4c(c5c(c3c2c1)C(=O)NC5=O)CCC4 [Compound 2ca]
5. CC(C)(C)OC(=O)N1CCN(C(=O)CCC(=O)c2ccc3[nH]c4c5c(c6c(c4c3c2)C(=O)NC6=O)CCC5)CC1 [Compound 4q]
6. Cc1nc(-c2ccc3[nH]c4c5c(c6c(c4c3c2)C(=O)NC6=O)CCC5)c(Br)s1 [Compound 3c]
7. CC(=O)Oc1ccc2[nH]c3c4c(c5c(c3c2c1)C(=O)NC5=O)CCC4 [Compound 2au]

Solution:
1. 7.77
2. 7.60
3. 7.51
4. 7.02
5. 8.00
6. 7.08
7. 7.48

Please state, for each entry, its recorded pIC50.
1. O=C(Cn1cncn1)c1ccc2[nH]c3c4c(c5c(c3c2c1)C(=O)NC5=O)CCC4 [Compound 2n]
2. CCOCc1ccc2[nH]c3c4c(c5c(c3c2c1)C(=O)NC5=O)CCC4 [Compound 2de]
3. CC(=O)Nc1nc(-c2ccc3[nH]c4c5c(c6c(c4c3c2)C(=O)NC6=O)CCC5)cs1 [Compound 3i]
4. O=C1NC(=O)c2c1c1c(c3[nH]c4ccc(CO)cc4c23)CCC1 [Compound 2aw]
5. CN(C)CCOC(=O)c1ccc2[nH]c3c4c(c5c(c3c2c1)C(=O)NC5=O)CCC4 [Compound 2cz]
6. O=C(CCC(=O)N1CCNCC1)c1ccc2[nH]c3c4c(c5c(c3c2c1)C(=O)NC5=O)CCC4 [Compound 4r]

Solution:
7.82
7.37
7.27
7.66
7.52
7.82
